Where these numbers come from: PubChem BioAssay (NCATS)

# System: NIH3T3
# Assay Text: Cytotoxic Profiling of Annotated Libraries Using Quantitative High-Throughput Screening (AID 1296008); further: on the % scale 0 is the no-effect control and ±100 the full control effect; nearly all actives have a fitted effect of over 60% in size
# Settings: Five cell lines viability, CellTiter-Glo ATP luminescence, 48-72 h; stronger effect = lower value
Records with an inconclusive call do not appear.
Listed next: entries and their corresponding max response.
Provide only the numeric value, understood in %.

Example cases with answers are listed next.
compound=Nc1ccncc1 measurement_label="max response" observed_value=2.18
compound=N[C@@H](Cc1ccc(Oc2cc(I)c(O)c(I)c2)c(I)c1)C(=O)O measurement_label="max response" observed_value=-1.92

Param item = CCCC(C)(COC(N)=O)COC(=O)NC(C)C (stereo not given) ; retrieve measured max response. -10.4

Param item = "C[C@]12C/C(=C/O)C(=O)C[C@@H]1CC[C@@H]1[C@@H]2CC[C@@]2(C)[C@H]1CC[C@]2(C)O" ; retrieve measured max response. 1.95

Param item = O=c1oc2ccccc2c(O)c1C(CC(O)c1ccc(-c2ccc(Br)cc2)cc1)c1ccccc1 (stereo not given) ; retrieve measured max response. 0.0262

Param item = "NN=C(N)N" ; retrieve measured max response. -4.47

Param item = CC(CCc1ccccc1)NC(C)C(O)c1ccc(O)cc1 (stereo not given) ; retrieve measured max response. -21.3

* * *

Listed next: entries and their corresponding viability (% of control).
# Assay Text: High-throughput drug toxicity screening in the BPDCN cell line Cal-1 (AID 1224825);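 further: cells exposed to compounds for 48 h; 100% = DMSO and 0% = bortezomib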
# Settings: Cal-1 BPDCN cell viability, qHTS; at 45.8 µM (top of the series)
Provide only the numeric value, understood in %.

Param item = "O=C1CC[C@@]2(O)[C@H]3Cc4ccc(O)c5c4[C@@]2(CCN3CC2CC2)[C@H]1O5" ; retrieve measured viability (% of control). 62

* * *

# Test system: CP335
# Assay Text: qHTS profiling for inhibitors of Plasmodium falciparum proliferation (AID 504749); further: nearly all actives have a fitted effect of over 60% in size
# Settings: P. falciparum in erythrocytes, SYBR Green DNA, 72 h; series mostly up to 28.7 µM
Results filed as inconclusive are left out. Active and inactive are the calls of the source. Calls come from the whole dose curve; as a rule, active = well fitted inhibition curve with a large enough effect; inconclusive = small, poorly fitted or top-dose-only effect; inactive = flat fitted curve, though single readings scatter.
Your response should consist of one outcome taken from 1 (yes) for active, 0 (no) for inactive

Recorded results for 2 compounds are shown here.
compound=COc1ccc(C(=O)c2c(C)n(CCN3CCOCC3)c3ccccc23)cc1 tgt=CP335 label_class="0 (no)"
compound="CC(C)=CC1C(C(=O)OCc2cccc(Oc3ccccc3)c2)C1(C)C (stereo not drawn)" tgt=CP335 label_class="0 (no)"

How did this test come out for "O=c1[nH]c2ccccc2n1C1CCN(CCCC(c2ccc(F)cc2)c2ccc(F)cc2)CC1" ? 1 (yes)

How did this test come out for "Cc1ncc(CNC(=O)N(CCCl)N=O)c(N)n1" ? 0 (no)

How did this test come out for "CN1C(=S)CN=C(c2ccccc2)c2cc(Cl)ccc21" ? 0 (no)

How did this test come out for "CC(=O)[C@H]1CC[C@H]2[C@@H]3CC[C@H]4C[C@H](O)CC[C@]4(C)[C@H]3C(=O)C[C@]12C" ? 0 (no)

* * *

# Assay Text: qHTS Assay for Identification of Small Molecule Antagonists for Thrombopoietin (TPO) Signaling Pathway (AID 918); further: potency means the concentration at half of the fitted maximal effect; nearly all actives have a fitted effect of over 60% in size
# Settings: TPO-dependent cell signaling reporter, antagonist mode
Inconclusive results are not listed. Calls of active or inactive are those of the source. Calls come from the whole dose curve; as a rule, active = well fitted inhibition curve with a large enough effect; inconclusive = small, poorly fitted or top-dose-only effect, or effect the other way, or another doubt; inactive = flat fitted curve, though single readings scatter.
Measurement Label: Potency

Param item = "COc1ccc(Cc2nccc3cc(OC)c(OC)cc23)cc1OC" ; retrieve measured Potency. 12.6 µM (active)

Param item = "Fc1ccc(C(OCCN2CCN(CCCc3ccccc3)CC2)c2ccc(F)cc2)cc1" ; retrieve measured Potency. 10 µM (active)

Param item = "CN1C[C@H](CNC(=O)OCc2ccccc2)C[C@@H]2c3cccc4c3c(cn4C)C[C@H]21" ; retrieve measured Potency. 10 µM (active)

Param item = "O=c1[nH]c2ccccc2n1C1CCN(CCCC(c2ccc(F)cc2)c2ccc(F)cc2)CC1" ; retrieve measured Potency. 10 µM (active)
